Test system: IL-8
Experiment: In vitro chemotaxis, inhibition v IL-8
Type: cell-based, human
Set-up: concentration or dose not given beside the values
Bridge positions count the residues as written; N and C are the ends. Square brackets hold non-standard residues; d marks the D form. Peptide text beside a SMILES is read from it. * marks the point of attachment. Octanoyl = CCCCCCCC(=O)*
ASSAY_METRIC: v IL-8 inhibition (%)
The response must be a number in % with no trailing unit.

CCCCCCCC(=O)NCCCC[C@H](NC(=O)[C@@H](CC(=O)O)NC(=O)[C@H]1CSSC[C@@H](N)C(=O)N[C@H](CCC(N)=O)C(=O)N[C@H]([C@H](C)CC)C(=O)N[C@H](Cc2c[nH]c3ccccc23)C(=O)N[C@H](CCCCN)C(=O)N[C@H](CCC(N)=O)C(=O)N[C@H](CCCCN)C(=O)N2CCC[C@@H]2C(=O)N[C@H](CC(=O)O)C(=O)N[C@H](CC(C)C)C(=O)N1)C(=O)O [Example 147] (H-[dC][dQ][dI][dW][dK][dQ][dK][dP][dD][dL][dC][dD]K(Octanoyl)-OH; disulfide 1-11) :: 29.0

Reported v IL-8 inhibition (%) for CC[C@H](C)[C@@H]1NC(=O)[C@H](Cc2c[nH]c3ccccc23)NC(=O)[C@H](CCCCN)NC(=O)[C@H](CCC(N)=O)NC(=O)[C@H](CCCCN)NC(=O)[C@@H](NC(C)=O)CSSC[C@@H](C(=O)N2CCC[C@@H]2C(=O)N[C@H](CC(=O)O)C(=O)N[C@H](CC(C)C)C(N)=O)NC(=O)[C@H](CCC(N)=O)NC1=O [Example 157] (Ac-CKQKWIQC[dP][dD][dL]-NH2; disulfide 1-8) : what is it?
−15

What v IL-8 inhibition (%) value was documented for this compound, CC[C@H](C)[C@@H]1NC(=O)[C@H](Cc2c[nH]c3ccccc23)NC(=O)[C@H](CCCCN)NC(=O)[C@@H](NC(=O)[C@H](CCC(N)=O)NC(=O)[C@H](CCCCN)NC(=O)[C@@H]2CCCN2)CSSC[C@@H](C(N)=O)NC(=O)[C@H](CCC(N)=O)NC1=O [Example 45] (H-PKQCKWIQC-NH2; disulfide 4-9) ?
74.2

Given CC[C@H](C)[C@@H]1NC(=O)[C@H](Cc2c[nH]c3ccccc23)NC(=O)[C@@H](NC(=O)[C@H](CCCCN)NC(=O)[C@H](CCC(N)=O)NC(=O)[C@H](CCCCN)NC(=O)[C@@H]2CCCN2C(=O)[C@H](CC(=O)O)NC(=O)[C@@H](N)CC(C)C)CSSC[C@@H](C(N)=O)NC(=O)[C@H](CCC(N)=O)NC1=O [Example 13] (H-LDPKQKCWIQC-NH2; disulfide 7-11) , state its recorded v IL-8 inhibition (%).
5.8

Which value of v IL-8 inhibition (%) has been reported for CC[C@H](C)[C@@H]1NC(=O)[C@H](Cc2c[nH]c3ccccc23)NC(=O)[C@H](CCCCN)NC(=O)[C@H](CCC(N)=O)NC(=O)[C@H](CCCCN)NC(=O)[C@@H]2CCCN2C(=O)[C@H](CC(=O)O)NC(=O)[C@@H](CC(C)C)NC(=O)[C@@H](NC(C)=O)CSSC[C@@H](C(N)=O)NC(=O)[C@H](CCC(N)=O)NC1=O [Example 32] (Ac-C[dL]DPKQKWIQC-NH2; disulfide 1-11) in the records?
8.7
